Reported pKb by item:
testTarget: Melanin-concentrating hormone receptor 1 (Homo sapiens, UniProt Q99705);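 note: antagonism measured by [35S]GTPγS binding in HEK cells carrying human MCH1 receptor, 45 min incubation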
Sequence (Q99705 whole entry): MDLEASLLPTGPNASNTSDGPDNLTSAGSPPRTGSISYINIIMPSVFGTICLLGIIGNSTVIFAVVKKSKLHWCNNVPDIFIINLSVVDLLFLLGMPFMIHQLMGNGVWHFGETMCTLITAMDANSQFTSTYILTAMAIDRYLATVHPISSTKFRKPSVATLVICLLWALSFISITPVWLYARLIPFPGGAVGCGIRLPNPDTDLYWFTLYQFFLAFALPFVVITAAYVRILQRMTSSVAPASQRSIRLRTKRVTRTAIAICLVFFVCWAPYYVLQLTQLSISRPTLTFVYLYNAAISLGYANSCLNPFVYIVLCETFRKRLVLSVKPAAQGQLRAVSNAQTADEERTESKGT
measurementSetup: HEK293
Description: Antagonist activity at human MCH1 receptor expressed in HEK cells after 45 mins by [35S]GTP-gamma-S binding assay
I'd appreciate a reply containing only the number, no unit.

Worked examples follow.
* CCC(COC(C)=O)(COC(C)=O)NC(=O)N(CCC1CCN(Cc2ccc(C)cc2)CC1)Cc1ccc(-c2ccc(F)cc2)cc1 | 6.71
* CCC(COC(C)=O)(COC(C)=O)NC(=O)N(CCC1CCN(Cc2ccc(C)cc2)CC1)Cc1ccc(-c2ccc(OC)cc2)cc1 | 6.86

Consider the molecule CCC(CO)(CO)NC(=O)N(CCC1CCN(Cc2ccc(C)cc2)CC1)Cc1ccc(-c2ccc(F)cc2)cc1 and give its recorded pKb. 6.54

Tell me pKb reported for Cc1ccc(CN2CCC(NC(=O)NCc3ccc(-c4ccccc4)cc3)CC2)cc1 5.97

Note down pKb recorded for Cc1ccc(CN2CCC(NC(=O)N(CC(=O)C(C)(C)O)Cc3ccc(-c4ccc(F)cc4)cc3)CC2)cc1 5.34

Fill in pKb for record CC(=O)OCC(C)(C)NC(=O)N(CCC1CCN(Cc2ccc(C)cc2)CC1)Cc1ccc(-c2cccc(C#N)c2)cc1 6.63

Name the recorded pKb of the molecule listed here: Cc1ccc(CN2CCC(NC(=O)NCc3ccc(-c4ccc(F)cc4)cc3)CC2)cc1 6.71
